Assay: modulators of CIT2-GFP expression in yeast, confirmation, S. cerevisiae, GFP fusion, cherry picks, mother/daughter gates (AID 2274)
Conditions: S. cerevisiae CIT2-GFP strain, flow cytometry, 3 h; measured here: mother cell gate; at 10 µM; stronger effect = higher value
Measured Metric: GFP response, % of DMSO (%)
Value expressed in %; do not type the unit.

[ask] Return the recorded GFP response, % of DMSO value; entry: `O=C(COC(=O)C1CCN(c2ccc(C(F)(F)F)cn2)CC1)Nc1cccc(F)c1`
[reply] 102

[ask] Return the recorded GFP response, % of DMSO value; entry: `Cc1cc(N=Nc2ccccc2C(=O)O)c(C)c(C)c1O`
[reply] 125

[ask] Return the recorded GFP response, % of DMSO value; entry: `C=CCNC(=O)/C(=C\c1ccc(OC)cc1)NC(=O)c1ccc([N+](=O)[O-])cc1`
[reply] 110

[ask] Return the recorded GFP response, % of DMSO value; entry: COc1ccc(NC(=O)C2C3C=CC(C3)C2C(=O)NCc2ccco2)c(OC)c1 (centres undefined)
[reply] 96

[ask] Return the recorded GFP response, % of DMSO value; entry: `C=CCOc1ccc(/C=C2\N=C(C)OC2=O)cc1OC`
[reply] 99.7

[ask] Return the recorded GFP response, % of DMSO value; entry: `N#C/C(C(=O)Nc1ccc(Cl)cc1)=C(/S)Nc1ccccc1`
[reply] 105

[ask] Return the recorded GFP response, % of DMSO value; entry: `Cc1nn(Cc2ccccc2Cl)c(C)c1C(=O)NCc1ccco1`
[reply] 100

[ask] Return the recorded GFP response, % of DMSO value; entry: `Brc1ccc2c(c1)OCCOCCOc1cc(Br)ccc1OCCOCCOCCO2`
[reply] 93.8

[ask] Return the recorded GFP response, % of DMSO value; entry: `CCOc1ccc(NC2=C(Cl)C(=O)N(Cc3ccccc3)C2=O)cc1`
[reply] 94.5

[ask] Return the recorded GFP response, % of DMSO value; entry: `CSc1ccc(/C=N/NC(=O)c2ccc(O)cc2)cc1`
[reply] 103

[ask] Return the recorded GFP response, % of DMSO value; entry: `Cc1cccc(/C(N)=N/OC(=O)C23CC4CC(CC(C4)C2)C3)c1`
[reply] 127

[ask] Return the recorded GFP response, % of DMSO value; entry: `COc1ccccc1-c1noc(CCC(=O)Nc2cccc(C)c2)n1`
[reply] 95.6

[ask] Return the recorded GFP response, % of DMSO value; entry: `O=C(OCC(=O)N1CCN(C(=O)c2ccco2)CC1)c1cc(-c2cccc(Br)c2)nc2ccccc12`
[reply] 125

[ask] Return the recorded GFP response, % of DMSO value; entry: `Cc1ccc(NC(=O)c2nc(S(=O)(=O)Cc3ccccc3C)ncc2Cl)cc1C`
[reply] 94.9

[ask] Return the recorded GFP response, % of DMSO value; entry: `N=C1/C(=C\c2ccc(Br)o2)C(=O)N=C2SC(CC(=O)N3CCCCC3)=NN12`
[reply] 108

[ask] Return the recorded GFP response, % of DMSO value; entry: `CC(=O)NN1C(=O)/C(=C/c2ccc(Br)o2)SC1=S`
[reply] 150

[ask] Return the recorded GFP response, % of DMSO value; entry: CCC(Sc1nc(=O)cc(N)n1-c1ccccc1)C(=O)Nc1cc(C)on1 (centres undefined)
[reply] 104

[ask] Return the recorded GFP response, % of DMSO value; entry: `O=C(Nc1nc(-c2ccccc2Cl)cs1)c1cccnc1`
[reply] 97.7

[ask] Return the recorded GFP response, % of DMSO value; entry: `CCOC(=O)c1sc(NC(=O)CN2C(=O)c3cccc4cccc(c34)C2=O)nc1C`
[reply] 97.3

[ask] Return the recorded GFP response, % of DMSO value; entry: O=C(CS(=O)c1ccccc1[N+](=O)[O-])Oc1ccc(Br)cc1 (centres undefined)
[reply] 91.5

[ask] Return the recorded GFP response, % of DMSO value; entry: `COc1ccc(CCN2C(=O)c3cccc4cccc(c34)C2=O)cc1OC`
[reply] 96.8

[ask] Return the recorded GFP response, % of DMSO value; entry: `CCOC(=O)c1cc(S(=O)(=O)N2CCN(C(=O)OCC)CC2)cn1C`
[reply] 102

[ask] Return the recorded GFP response, % of DMSO value; entry: `Cc1cccc(NC(=O)c2ccccc2O)c1C`
[reply] 94.9

[ask] Return the recorded GFP response, % of DMSO value; entry: `CCCc1nnc(NC(=O)c2nc(S(=O)(=O)Cc3ccc(C)cc3)ncc2Cl)s1`
[reply] 108

[ask] Return the recorded GFP response, % of DMSO value; entry: `CCc1nnc(NC(=O)c2ccc(S(=O)(=O)N(CC)Cc3ccccc3)cc2)o1`
[reply] 104

[ask] Return the recorded GFP response, % of DMSO value; entry: `COc1ccc(CC2=CC(=O)c3ccccc3C2=O)cc1`
[reply] 94.5

[ask] Return the recorded GFP response, % of DMSO value; entry: `COc1ccc(OC)c(CNC(=O)CCC(=O)N2Cc3cccc(OC)c3Oc3ncccc32)c1`
[reply] 103

[ask] Return the recorded GFP response, % of DMSO value; entry: `COc1cccc(/C(C)=N/NC(=O)c2ccc(N(C)C)cc2)c1`
[reply] 89.8

[ask] Return the recorded GFP response, % of DMSO value; entry: `Cc1nn(Cc2ccc(Cl)cc2)c(=O)n1N(C)c1ncc(C(F)(F)F)cc1Cl`
[reply] 98.5

[ask] Return the recorded GFP response, % of DMSO value; entry: `COc1ccc(N2C(=O)C(Cl)=C(Oc3cccc(OC)c3)C2=O)cc1`
[reply] 80.8

[ask] Return the recorded GFP response, % of DMSO value; entry: `CCOC(=O)N/C(N)=N/c1nc2ccccc2s1`
[reply] 93.4

[ask] Return the recorded GFP response, % of DMSO value; entry: `O=C(CSc1cccc[n+]1[O-])CSc1cccc[n+]1[O-]`
[reply] 98.2

[ask] Return the recorded GFP response, % of DMSO value; entry: `O=C1C(Cl)=C(NCCc2ccccc2)C(=O)N1CCc1ccccc1`
[reply] 106

[ask] Return the recorded GFP response, % of DMSO value; entry: `Cc1cc(NC(=O)c2cccnc2Cl)ccc1NC(=O)c1cc2ccccc2o1`
[reply] 103

[ask] Return the recorded GFP response, % of DMSO value; entry: `Cc1ccc(CS(=O)(=O)c2ncc(Cl)c(C(=O)Nc3nnc(C(C)C)s3)n2)cc1`
[reply] 100

[ask] Return the recorded GFP response, % of DMSO value; entry: CCS(=O)(=O)N1N=C(c2ccc(NS(C)(=O)=O)cc2)CC1c1ccccc1 (centres undefined)
[reply] 103

[ask] Return the recorded GFP response, % of DMSO value; entry: Cc1cccn2c(=O)c(/C=C(\C#N)C(=O)NC3CCS(=O)(=O)C3)c(N3CC(C)OC(C)C3)nc12 (centres undefined)
[reply] 99.7

[ask] Return the recorded GFP response, % of DMSO value; entry: `Cc1cc(NCCN2CCOCC2)n2nc(C)c(-c3ccc(Cl)cc3)c2n1`
[reply] 99.3

[ask] Return the recorded GFP response, % of DMSO value; entry: `CCOc1c(Br)ccc2c1sc1nc[nH]c(=O)c12`
[reply] 100

[ask] Return the recorded GFP response, % of DMSO value; entry: `CCn1c2ccccc2c2cc(/C=N/n3cn[nH]c3=S)ccc21`
[reply] 84.8

[ask] Return the recorded GFP response, % of DMSO value; entry: `COc1ccc(-c2nc(N)n(C(C)=O)n2)cc1`
[reply] 111

[ask] Return the recorded GFP response, % of DMSO value; entry: `Cc1[nH][nH]c(=O)c1C(c1ccc(N(C)C)c(Br)c1)c1c(C)[nH][nH]c1=O`
[reply] 94.5

[ask] Return the recorded GFP response, % of DMSO value; entry: `O=C(O)Cc1sc(Nc2ccc(F)cc2)nc1-c1cccs1`
[reply] 103

[ask] Return the recorded GFP response, % of DMSO value; entry: `O=C1c2cccc3c(N4CCCCC4)ccc(c23)C(=O)N1CCO`
[reply] 96.8
